# reported Molecular weight (×10^4), irradiation time 100 h; entries follow
# testName: Photostability test in glass vials not shielded from light: gelation, molecular weight, percent conjugation of MTX (Example 4(2))
# Format: physicochemical
# conditionDetails: additive 1 mg/ml; 4000 Lux, 25° C., not shielded from light

Below, 3 compounds whose answers are already recorded.
O=C([O-])CS.[Na+] [Na thioglycolate, sodium thioglycolate]: 8 ×10^4
CC(=O)N[C@@H](Cc1c[nH]c2ccccc12)C(=O)O [N-acetyltryptophan]: 138 ×10^4
COC(=O)c1ccc(O)cc1 [Methyl paraben, methyl p-hydroxybenzoate]: 107 ×10^4

Now consider the entry below.
Query block: Fill in the blank: the reported Molecular weight (×10^4), irradiation time 100 h of N[C@@H](Cc1c[nH]c2ccccc12)C(=O)O [Tryptophan, tryptophan] is ____.
Result block: 112 ×10^4
